# Tested on: NCI-H460 lung
# assay protocol: NCI-60 one-dose screen, 48 h
# test parameters: 10 µM unless noted
About 83,000 compounds went through this panel and 20% of them were active in at least one assay; those are over-represented in the sample as a whole. Calls of active or inactive are those of the source. Rule for the calls: active = growth percent below 10; inactive = the rest.
Tick one outcome: T = active, F = inactive

Illustrative cases are given below, each with its answer.
INSERT INTO measurements (smiles, target_under_test, qualitative_label) VALUES
  ('Nc1nc2c([nH]1)c1[nH]c3ccccc3c1c1[nH]c3ccccc3c21', 'NCI-H460 lung', 'T'),
  ('COc1ccc2c(c1)[n+]([O-])c(C(=O)/C=C/C=C(\Cl)c1cc(OC)c(OC)c(OC)c1)c(C)[n+]2[O-]', 'NCI-H460 lung', 'F'),
  ('COCCn1cc(-c2nc(-c3cc4cccnc4n3CCOC)cs2)c2cc(OC)ccc21', 'NCI-H460 lung', 'F'),
  ('COc1ccc(-c2nc(SCC(C)C)nc(N/N=C\c3ccc(F)cc3)c2C#N)cc1', 'NCI-H460 lung', 'F'),
  ('CCCCOC(=O)OCc1cc(=O)c(O)co1', 'NCI-H460 lung', 'F');

Q. Hi, sorry to bother you, what did the test record for Cn1ccnc1C(=O)C(=O)Nc1ccc(CC(=O)Nc2ccccc2)cc1 ?
A. F

Q. Then CCCCC(=O)Nc1ncc(Cc2ccc(Cl)cc2)s1 ?
A. F

Q. Do the same for CC(=O)OCc1nc(C#N)c(N(C)C)o1 please
A. F

Q. Continue with O=[N+]([O-])c1ccc(-c2nc(N3CCOCC3)c3c4c(sc3n2)CCCC4)cc1
A. F

Q. Same read-out for O=S(=O)(Nc1cc(Br)c(O)c2ccccc12)c1ccc(F)cc1 ?
A. F

###

# Test system: HT29 colon
# assay protocol: NCI-60 one-dose screen, 48 h (100 = growth as untreated, 0 = no growth, -100 = all killed)
# test parameters: 10 µM unless noted
Compounds without any hit were thinned out: in the full panel of roughly 83,000, 20% have a hit. Activity calls are given as the source filed them. How the source made its calls: active means growth percent below 10; inactive means the rest.
Kindly state growth for each of the entries shown.

In the examples that follow, each entry is paired with its recorded growth.
INSERT INTO results (molecule, target_under_test, experimental_readout, value) VALUES
  ('Nc1nc2c([nH]1)c1[nH]c3ccccc3c1c1[nH]c3ccccc3c21', 'HT29 colon', 'growth', '3.16% (active)'),
  ('CCO/C=N/C1=C(C#N)C(c2ccc(OC)cc2)c2sc3c(F)cccc3c2O1 (configuration not stated)', 'HT29 colon', 'growth', '7.69% (active)'),
  ('CCSc1nc(NC)c2cc(-c3ccc(C(F)(F)F)cc3)ccc2n1', 'HT29 colon', 'growth', '98.9% (inactive)');

Could I get growth for every one of these entries?
1. CC1=Nc2cnc(Nc3ccc(OCCN4CCCC4)cc3)nc2Nc2ccccc21
2. CCOC(=O)c1cn2ncnc(Oc3ccc(NC(=O)NC4CCCCC4)c(Cl)c3)c2c1C
3. O=C(Cc1ccccc1)Nc1nc(O)c(/C=C2\C(=O)C=Cc3ccccc32)s1
4. Cc1cc(Cl)ccc1NC(=O)c1cc2ccccc2cc1O

A.
60.9% (inactive)
81.6% (inactive)
111% (inactive)
80.5% (inactive)

###

# Test system: NCI-H226 lung
# assay protocol: NCI-60 one-dose screen, 48 h
# test parameters: 10 µM unless noted
The panel holds about 83,000 compounds, 20% with a hit somewhere; the sample as a whole holds those more often. Activity calls are given as the source filed them. The calls were made as follows: active = growth percent below 10; inactive = the rest.
Hello, when you answer, please use one of the following outcomes: active, inactive

INSERT INTO results (compound, target_under_test, qualitative_label) VALUES
  ('COc1cc2c(c(OC)c1OC)CCC(c1cccc(C(=O)Nc3cccc(Br)c3)c1)O2 (stereo unspecified)', 'NCI-H226 lung', 'inactive'),
  ('CO[C@H]1/C=C(/C)CCC[C@H](C)[C@H](O)[C@@H](C)C(=O)C(C)(C)[C@@H](O)CC(=O)O[C@@H]1/C(C)=C/c1csc(C)n1', 'NCI-H226 lung', 'inactive'),
  ('Oc1c(Cl)cc(Cl)cc1/C=N/Nc1nnc(N/N=C/c2cc(Cl)cc(Cl)c2O)c2ccccc12', 'NCI-H226 lung', 'active');

Q. How was COC(=O)CNC(=O)[C@H](Cc1ccccc1)NCc1ccncc1 classified in this test?
A. inactive

Q. Another compound: COc1ccc(/C=C2\C(=O)N=C3N2NC(c2cc(Br)ccc2O)C=C(C)N3c2ccccc2)cc1 (stereo unspecified)
A. inactive

Q. Same question, Cc1ccc(Cl)cc1Nc1nc(C(F)(F)F)ccc1C(=O)N/N=C/c1cccnc1 this time
A. inactive

Q. Cool, now CCOC(=O)c1ccc2[nH]c(O)c(C(=Nc3ccc(N(C)C(=O)CN4CCN(C)CC4)cc3)c3ccccc3)c2c1
A. inactive

Q. Next: Fc1cccc(CNc2c3ccccc3nc3ccccc23)c1F
A. inactive

Q. Same thing, different compound: O=C(Nc1ccc(-c2nc(N3CCOCC3)c3cccn3n2)cc1)Nc1cccnc1
A. active

Q. What about this compound? CC[C@@H](C(=O)[C@@H](C)[C@@H](O)[C@H](C)[C@@H]1O[C@@H]([C@@H](CC)C(=O)NCCc2ccc(F)cc2)CC[C@@H]1C)C1O[C@]2(C=CC(=O)[C@]3(CC[C@@](C)([C@H]4CC[C@](O)(CC)[C@H](C)O4)O3)O2)[C@H](C)C[C@@H]1C (stereo partly specified)
A. inactive

Q. Okay, and CC1=C(C(=O)OC(C)C)C(c2ccc3c(c2)OCO3)NC(=S)N1 (stereo unspecified) ?
A. inactive

Q. Same read-out for N#C/C(=C\c1ccc2ccccc2c1)c1cc2ccccc2[nH]1 ?
A. inactive

Q. How about CCN(CC)CCNC(=O)c1cn2ncnc(Oc3ccc(NC(=O)Nc4ccc(Cl)c(C(F)(F)F)c4)c(F)c3)c2c1C ?
A. inactive

Q. Another compound: O=C(Cn1c2c(c3ccccc31)CCCC2)Nc1ccc(-c2nc3ccccc3s2)cc1
A. inactive

Q. Proceed to CC1(c2ccccc2O)NN=C(/N=C/c2cccc([N+](=O)[O-])c2)N1C(Cc1c[nH]c2ccccc12)C(=O)O (stereo unspecified)
A. inactive

Q. Entry CCCCNc1ccc(C#N)c(OCCN(CC)CC)c1 please
A. inactive

Q. Lookup COC(=O)c1cc(-c2ccccc2)[nH]c1N/N=C/c1c(Cl)cccc1Cl
A. inactive

Q. Try COc1ccc2c(c1)[n+]([O-])c(C(=O)/C=C/C=C(\Cl)c1cc(OC)c(OC)c(OC)c1)c(C)[n+]2[O-] next.
A. inactive

Q. Another: Nc1nc(=S)c2ncn(C3OC(COP(=O)(O)O)C(O)C3O)c2[nH]1 (stereo unspecified)
A. inactive

Q. Subsequent entry: Fc1ccc(-c2nn(-c3ccccc3)cc2-c2nc3ccccc3o2)cc1
A. inactive

Q. Also COc1ccc2c(O)c(/C=C3\N=Nc4ncccc43)oc2c1C[C@H]1CCNC[C@H]1F , if possible.
A. active

Q. Entry to check: O=C(OCc1ccc2cccc(O)c2n1)N1CCN(C(=O)c2cc3cc(F)ccc3[nH]2)CC1
A. inactive

###

# System: SK-MEL-5 melanoma
# assay protocol: NCI-60 one-dose screen, 48 h
# test parameters: 10 µM unless noted
The panel holds about 83,000 compounds, 20% with a hit somewhere; the sample as a whole holds those more often. Activity calls are given as the source filed them. Rule for the calls: active = growth percent below 10; inactive = the rest.
Respond using exactly one of the listed classes: active, inactive

Q. What outcome does the record of this test show for CN(C)C1CCN(Cc2ccc(NC(=O)c3cncc(C#Cc4cnc(N)c5ncccc45)c3)cc2C(F)(F)F)CC1 ?
A. inactive

Q. Next molecule up: N#C/C(=C\c1ccc2ccccc2c1)c1cc2ccccc2[nH]1
A. inactive

Q. Also need COC1=CC(c2ccc[nH]2)=N/C1=C\c1[nH]c(C)c(C(=O)OCc2ccccc2)c1C , thanks.
A. active

###

# Tested on: HCC-2998 colon
# assay protocol: NCI-60 one-dose screen, 48 h (100 = growth as untreated, 0 = no growth, -100 = all killed)
# test parameters: 10 µM unless noted
# Description: Growth inhibition of the HCC-2998 human tumor cell line is measured as a screen for anti-cancer activity. Cells are grown in 96 well plates and exposed to the test compound for 48 hours. Compounds are tested at a single concentration, which is 10^-5 M for most compounds. The reported endpoint is percent growth (GI% or GIPRCNT), where numbers from 0 - 100% represent growth inhibition, and numbers from -100% - 0 represent cell death. For example, a value of 40 represents 60% growth inhibition. […]
This is part of a sample that, as a whole, favours compounds with a hit. Of some 83,000 tested, about 20% had one in any assay.
experimental readout: growth (%)
Give bare numbers, in %.

Reference set, count: 4
INSERT INTO results (compound, value) VALUES
  ('O=C(NCCCN1CCOCC1)c1cccc(N2C(=O)/C(=C/c3ccc(F)cc3)SC2=S)c1', 97.1),
  ('COC1=CC(c2ccc[nH]2)=N/C1=C\c1[nH]c(C)c(C(=O)OCc2ccccc2)c1C', -54.5),
  ('COc1cnc2c(c1)C(=O)c1c-2n(CCCNCCO)c(=O)c2ccncc12', 26.4),
  ('CC1=C(CCC(C)N(C)Cc2ccc(OCCCN3CCCC3)cc2)C(C)(C)CCC1 (centres undefined)', -31);

Parameters: items (list). Returns: growth for each item.
1. O=C1c2c(c3c4ccccc4[nH]c3c3ccc4ccccc4c23)C(=O)N1CCN1CCCCC1
2. CCOC(=O)C#Cc1c(C(=O)OCC)nnn1[C@@H]1O[C@H](CO)[C@H]2OC3(CCCCC3)O[C@H]21
3. CC(C)c1ccc(COCc2cc(CN3CCCC3)c(O)c3ncccc23)cc1
4. C=C1C(=O)O[C@H]2[C@H]1CC/C(COC(=O)N[C@H]1C[C@H](O[C@H]3C[C@](O)(C(=O)CO)Cc4c(O)c5c(c(O)c43)C(=O)c3c(OC)cccc3C5=O)O[C@@H](C)[C@H]1O)=C\CC[C@@]1(C)O[C@@H]21
5. COc1cccc(/C=C/C(=O)c2cc3c(N)c(C(=O)Nc4ccccc4)sc3nc2C)c1
6. CN(C)Cc1ccc(NC(=O)c2cncc(C#Cc3cnc(N)c4ncccc34)c2)cc1F
7. OCc1cccc(-c2ccc3ncc(-c4nc(NC5CC5)ncc4F)n3c2)c1
8. O=C(Nn1c2c(sc1=Nc1ccccc1)C(=O)c1ccccc1C2=O)c1cc2ccc1CCc1ccc(cc1)CC2

A.
[-0.0363, 85.4, 14.6, 99.3, -37, 91, -0.971, 86.8]

FYI, the data here is from PubChem BioAssay (NCI).
